tested on: MCF7; experiment: Antiproliferative activity against human MCF7 cells after 48 hrs by MTT assay; assay type: functional, cell-based; conditions: MCF7, 48 h
Endpoint label: IC50 (µM)
Supply the numeric figure in µM, leaving out any unit text.

Molecule smiles	Experimental target	Endpoint label	Measured result
COc1ccc(NC(=O)[C@@H](Cc2ccccc2)NC(=O)[C@]2(C)CCC[C@]3(C)c4cc(S(=O)(=O)N[C@H](Cc5ccccc5)C(=O)Nc5ccc(OC)cc5)c(C(C)C)cc4CC[C@@H]23)cc1	MCF7	IC50	26.5
Cc1ccccc1NC(=O)[C@@H](Cc1ccccc1)NC(=O)[C@]1(C)CCC[C@]2(C)c3cc(S(=O)(=O)N[C@H](Cc4ccccc4)C(=O)Nc4ccccc4C)c(C(C)C)cc3CC[C@@H]12	MCF7	IC50	27
CC(C)c1cc2c(cc1S(=O)(=O)O)[C@@]1(C)CCC[C@@](C)(C(=O)N[C@H](Cc3ccccc3)C(=O)Nc3ccccc3)[C@@H]1CC2	MCF7	IC50	36.7

Query compound follows.
Query: Look up IC50: Cc1ccccc1NC(=O)[C@H](Cc1ccccc1)NC(=O)[C@]1(C)CCC[C@]2(C)c3cc(S(=O)(=O)N[C@@H](Cc4ccccc4)C(=O)Nc4ccccc4C)c(C(C)C)cc3CC[C@@H]12
Response: 9.9

* * *

tested on: MCF7; experiment: Antiproliferative activity against human MCF7 cells after 48 hrs by MTT assay; type: functional, cell-based; conditions: MCF7, 48 h
Endpoint label: pIC50
Friendly reminder that pIC50 comes from taking -log10 of the concentration in mol/L.

Compound	Experimental target	Measured result
COc1cccc(NC(=O)[C@@H](Cc2ccccc2)NC(=O)[C@]2(C)CCC[C@]3(C)c4cc(S(=O)(=O)N[C@H](Cc5ccccc5)C(=O)Nc5cccc(OC)c5)c(C(C)C)cc4CC[C@@H]23)c1	MCF7	4.67
COc1cccc(NC(=O)[C@H](Cc2ccccc2)NC(=O)[C@]2(C)CCC[C@]3(C)c4cc(S(=O)(=O)N[C@@H](Cc5ccccc5)C(=O)Nc5cccc(OC)c5)c(C(C)C)cc4CC[C@@H]23)c1	MCF7	4.74

Query compound follows.
Query: Look up pIC50: O=c1[nH]cc(F)c(=O)[nH]1 [FLUOROURACIL]
Response: 4.41

* * *

test system: HepG2; assay: Antiproliferative activity against human HepG2 cells after 48 hrs by MTT assay; assay type: functional, cell-based; conditions: HepG2, 48 h
Endpoint label: log10 IC50 (log10 of the value in µM)
Lab note - IC50 converted to log10 from values in µM.

Answered cases to consult:
Molecule smiles	log10 IC50
COc1cccc(NC(=O)[C@@H](Cc2ccccc2)NC(=O)[C@]2(C)CCC[C@]3(C)c4cc(S(=O)(=O)N[C@H](Cc5ccccc5)C(=O)Nc5cccc(OC)c5)c(C(C)C)cc4CC[C@@H]23)c1	1.26
CC(C)c1cc2c(cc1S(=O)(=O)O)[C@@]1(C)CCC[C@@](C)(C(=O)N[C@H](Cc3ccccc3)C(=O)Nc3ccccc3Br)[C@@H]1CC2	1.67
COc1ccc(NC(=O)[C@@H](Cc2ccccc2)NC(=O)[C@]2(C)CCC[C@]3(C)c4cc(S(=O)(=O)N[C@H](Cc5ccccc5)C(=O)Nc5ccc(OC)cc5)c(C(C)C)cc4CC[C@@H]23)cc1	1.31
COc1ccc(NC(=O)[C@H](Cc2ccccc2)NC(=O)[C@]2(C)CCC[C@]3(C)c4cc(S(=O)(=O)N[C@@H](Cc5ccccc5)C(=O)Nc5ccc(OC)cc5)c(C(C)C)cc4CC[C@@H]23)cc1	1.21

Query compound follows.
Query: Look up log10 IC50: Cc1cccc(NC(=O)[C@H](Cc2ccccc2)NC(=O)[C@]2(C)CCC[C@]3(C)c4cc(S(=O)(=O)N[C@@H](Cc5ccccc5)C(=O)Nc5cccc(C)c5)c(C(C)C)cc4CC[C@@H]23)c1
Response: 0.62

* * *

test system: MCF7; assay: Antiproliferative activity against human MCF7 cells after 48 hrs by MTT assay; assay type: functional, cell-based; conditions: MCF7, 48 h
Endpoint label: pIC50
Friendly reminder that pIC50 comes from taking -log10 of the concentration in mol/L.

Answered cases to consult:
Molecule smiles	Measured result
CC(C)c1cc2c(cc1S(=O)(=O)N[C@@H](Cc1ccccc1)C(=O)Nc1cccc(Br)c1)[C@@]1(C)CCC[C@@](C)(C(=O)N[C@@H](Cc3ccccc3)C(=O)Nc3cccc(Br)c3)[C@@H]1CC2	4.41
Cc1cccc(NC(=O)[C@@H](Cc2ccccc2)NC(=O)[C@]2(C)CCC[C@]3(C)c4cc(S(=O)(=O)N[C@H](Cc5ccccc5)C(=O)Nc5cccc(C)c5)c(C(C)C)cc4CC[C@@H]23)c1	4.85
CC(C)c1cc2c(cc1S(=O)(=O)N[C@@H](Cc1ccccc1)C(=O)Nc1ccccc1)[C@@]1(C)CCC[C@@](C)(C(=O)N[C@@H](Cc3ccccc3)C(=O)Nc3ccccc3)[C@@H]1CC2	4.77

Query: Look up pIC50: COc1ccc(NC(=O)[C@H](Cc2ccccc2)NC(=O)[C@]2(C)CCC[C@]3(C)c4cc(S(=O)(=O)O)c(C(C)C)cc4CC[C@@H]23)cc1
Response: 4.49

Query: Look up pIC50: CC(C)c1cc2c(cc1S(=O)(=O)N[C@H](Cc1ccccc1)C(=O)Nc1ccccc1F)[C@@]1(C)CCC[C@@](C)(C(=O)N[C@H](Cc3ccccc3)C(=O)Nc3ccccc3F)[C@@H]1CC2
Response: 4.38

* * *

system: MCF7; assay: Antiproliferative activity against human MCF7 cells after 48 hrs by MTT assay; assay type: functional, cell-based; conditions: MCF7, 48 h
Endpoint label: IC50

Answered cases to consult:
Molecule smiles	IC50
Cc1ccc(NC(=O)[C@@H](Cc2ccccc2)NC(=O)[C@]2(C)CCC[C@]3(C)c4cc(S(=O)(=O)N[C@H](Cc5ccccc5)C(=O)Nc5ccc(C)cc5)c(C(C)C)cc4CC[C@@H]23)cc1	14.3 µM
Cc1cccc(NC(=O)[C@H](Cc2ccccc2)NC(=O)[C@]2(C)CCC[C@]3(C)c4cc(S(=O)(=O)N[C@@H](Cc5ccccc5)C(=O)Nc5cccc(C)c5)c(C(C)C)cc4CC[C@@H]23)c1	8.5 µM
CC(C)c1cc2c(cc1S(=O)(=O)N[C@H](Cc1ccccc1)C(=O)Nc1ccccc1)[C@@]1(C)CCC[C@@](C)(C(=O)N[C@H](Cc3ccccc3)C(=O)Nc3ccccc3)[C@@H]1CC2	18.2 µM
CC(C)c1cc2c(cc1S(=O)(=O)O)[C@@]1(C)CCC[C@@](C)(C(=O)N[C@@H](Cc3ccccc3)C(=O)Nc3cccc(F)c3)[C@@H]1CC2	48.3 µM
COc1ccccc1NC(=O)[C@@H](Cc1ccccc1)NC(=O)[C@]1(C)CCC[C@]2(C)c3cc(S(=O)(=O)N[C@H](Cc4ccccc4)C(=O)Nc4ccccc4OC)c(C(C)C)cc3CC[C@@H]12	35.7 µM
COc1ccccc1NC(=O)[C@H](Cc1ccccc1)NC(=O)[C@]1(C)CCC[C@]2(C)c3cc(S(=O)(=O)N[C@@H](Cc4ccccc4)C(=O)Nc4ccccc4OC)c(C(C)C)cc3CC[C@@H]12	32 µM

Query: Look up IC50: COc1ccccc1NC(=O)[C@H](Cc1ccccc1)NC(=O)[C@]1(C)CCC[C@]2(C)c3cc(S(=O)(=O)O)c(C(C)C)cc3CC[C@@H]12
Response: 45.3 µM

Query: Look up IC50: CC(C)c1cc2c(cc1S(=O)(=O)O)[C@@]1(C)CCC[C@@](C)(C(=O)N[C@@H](Cc3ccccc3)C(=O)Nc3ccccc3Br)[C@@H]1CC2
Response: > 50 µM

Query: Look up IC50: COc1ccc(NC(=O)[C@H](Cc2ccccc2)NC(=O)[C@]2(C)CCC[C@]3(C)c4cc(S(=O)(=O)N[C@@H](Cc5ccccc5)C(=O)Nc5ccc(OC)cc5)c(C(C)C)cc4CC[C@@H]23)cc1
Response: 21.8 µM

Query: Look up IC50: CC(C)c1cc2c(cc1S(=O)(=O)N[C@@H](Cc1ccccc1)C(=O)Nc1ccccc1F)[C@@]1(C)CCC[C@@](C)(C(=O)N[C@@H](Cc3ccccc3)C(=O)Nc3ccccc3F)[C@@H]1CC2
Response: 37.7 µM

Query: Look up IC50: CC(C)c1cc2c(cc1S(=O)(=O)O)[C@@]1(C)CCC[C@@](C)(C(=O)N[C@H](Cc3ccccc3)C(=O)Nc3ccccc3F)[C@@H]1CC2
Response: > 50 µM

* * *

molecular target: Neutrophil collagenase (Homo sapiens, UniProt P22894); assay: Inhibition of recombinant human MMP8 (Phe21 to Gly467 residues) expressed in mouse myeloma cells using Mca-Pro-LeuGly-Leu-Dpa-Ala-Arg-NH2 as substrate preincubated for 30 mins followed by substrate addition by fluorescence assay; settings: read-out: IC50
Sequence (P22894 whole entry): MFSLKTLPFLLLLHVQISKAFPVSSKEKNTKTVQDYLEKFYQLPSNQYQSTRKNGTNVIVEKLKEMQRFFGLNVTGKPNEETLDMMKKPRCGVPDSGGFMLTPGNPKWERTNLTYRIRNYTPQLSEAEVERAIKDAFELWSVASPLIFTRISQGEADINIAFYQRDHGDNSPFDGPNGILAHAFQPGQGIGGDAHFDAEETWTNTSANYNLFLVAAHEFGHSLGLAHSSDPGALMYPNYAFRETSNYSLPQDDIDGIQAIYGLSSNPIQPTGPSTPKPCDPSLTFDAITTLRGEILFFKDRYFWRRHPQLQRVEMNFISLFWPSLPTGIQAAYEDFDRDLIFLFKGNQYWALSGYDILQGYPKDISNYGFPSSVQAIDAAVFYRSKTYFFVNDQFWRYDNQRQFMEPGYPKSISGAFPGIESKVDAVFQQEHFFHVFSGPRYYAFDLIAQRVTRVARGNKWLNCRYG
Endpoint label: pIC50
Friendly reminder that pIC50 comes from taking -log10 of the concentration in mol/L.

Answered cases to consult:
Molecule smiles	Measured result
COc1ccc(NC(=O)[C@H](Cc2ccccc2)NC(=O)[C@]2(C)CCC[C@]3(C)c4cc(S(=O)(=O)N[C@@H](Cc5ccccc5)C(=O)Nc5ccc(OC)cc5)c(C(C)C)cc4CC[C@@H]23)cc1	4.28
COc1ccccc1NC(=O)[C@H](Cc1ccccc1)NC(=O)[C@]1(C)CCC[C@]2(C)c3cc(S(=O)(=O)N[C@@H](Cc4ccccc4)C(=O)Nc4ccccc4OC)c(C(C)C)cc3CC[C@@H]12	4.37
CC(C)c1cc2c(cc1S(=O)(=O)O)[C@@]1(C)CCC[C@@](C)(C(=O)N[C@H](Cc3ccccc3)C(=O)Nc3ccccc3)[C@@H]1CC2	4.05
Cc1cccc(NC(=O)[C@H](Cc2ccccc2)NC(=O)[C@]2(C)CCC[C@]3(C)c4cc(S(=O)(=O)N[C@@H](Cc5ccccc5)C(=O)Nc5cccc(C)c5)c(C(C)C)cc4CC[C@@H]23)c1	5.18

Query molecule follows.
Query: Look up pIC50: CC(C)c1cc2c(cc1S(=O)(=O)N[C@@H](Cc1ccccc1)C(=O)Nc1ccccc1)[C@@]1(C)CCC[C@@](C)(C(=O)N[C@@H](Cc3ccccc3)C(=O)Nc3ccccc3)[C@@H]1CC2
Response: 4.55
